Task for the reader: assign each of the following compounds its reported GI50.
System: U-251
Test: NCI tumour cell line growth inhibition, 48 h
Calls of active or inactive are those of the source. No stated cut-off is given here; in the data, active = GI50 up to about 1.1 µM and inactive = higher.

Request: Let me know recorded GI50 for O=C1/C=C(/c2ccc(O)cc2)[C@@H](OC2OC(CO)C(O)C(O)C2O)Cc2ccc(O)cc2O1.O=C1/C=C(/c2ccc(O)cc2)[C@H](O)Cc2ccc(O[C@@H]3OC(CO)C(O)C(O)C3O)cc2O1 (stereo partly drawn) , thanks.
Response: > 100 µM (inactive)

Request: Let me know recorded GI50 for CCOC(=O)c1nc2ccccc2nc1Oc1cc(OC)cc(OC)c1 , thanks.
Response: 78.3 µM (inactive)

Request: Let me know recorded GI50 for CC(C)(C)C(=O)CC(=O)C(F)(F)C(F)(F)C(F)(F)F , thanks.
Response: 18.4 µM (inactive)

Request: Let me know recorded GI50 for COc1ccc(/C=C2\CCC(CNc3ccc(Br)cc3)C2=O)cc1 (stereo not drawn) , thanks.
Response: > 100 µM (inactive)

Request: Let me know recorded GI50 for CCOc1ccc(NC(=O)C2=C(C)NC(C)=C(C(=O)Nc3ccc(OCC)cc3)C2c2ccccc2)cc1 , thanks.
Response: > 100 µM (inactive)

Request: Let me know recorded GI50 for CN(C)c1ccc(-c2nc(N)nc3c2CCCC3)cc1 , thanks.
Response: 53.7 µM (inactive)

Request: Let me know recorded GI50 for O=C(CC(CC(=O)Oc1c(Br)cc(Br)cc1C(=O)O)C(=O)Oc1c(Br)cc(Br)cc1C(=O)O)Oc1c(Br)cc(Br)cc1C(=O)O , thanks.
Response: 46.6 µM (inactive)

Request: Let me know recorded GI50 for Cc1ccc2c3ccc4c(c3n(C)c2c1)C(=O)C=CC4=O , thanks.
Response: > 10 µM (inactive)

Request: Let me know recorded GI50 for Cc1cc(NCCCCCCNc2cc(C)nc3ccc(Cl)cc23)c2cc(Cl)ccc2n1 , thanks.
Response: 16.9 µM (inactive)

Request: Let me know recorded GI50 for CCOC(=O)C1=NC(c2ccccc2)(c2ccccc2)OC1=C(Cl)Cl , thanks.
Response: 74.6 µM (inactive)

Request: Let me know recorded GI50 for CSc1s[s+]c(SC)c1[O-] , thanks.
Response: 26.7 µM (inactive)

Request: Let me know recorded GI50 for CC1(C)COC(c2cccc3c2C(=O)c2cccc(Cl)c2-3)=N1 , thanks.
Response: 68.4 µM (inactive)

Request: Let me know recorded GI50 for COc1ccc2nccc(C3OC(=O)N4CCC(=O)CC34)c2c1 (stereo not drawn) , thanks.
Response: > 100 µM (inactive)
